Please go through the items and note down their Ki.
- experimentalSystem: SARS-CoV-2 M^pro (Severe acute respiratory syndrome coronavirus 2)
Answers are plain numbers, in nM.

Some solved cases for reference:
| compound | readout | endpointResult |
| --- | --- | --- |
| CCP(CC)CC.[Au+].[Cl-] [Au(PEt3)Cl] | Ki | 660 |
| CCCC[n+]1ccn(C)[c]1[Au-][Cl] [Au(NHC)Cl] | Ki | 870 |
| CC[P](CC)(CC)[Au][Br] [Au(PEt3)Br] | Ki | 440 |

Name the recorded Ki for CC[P](CC)(CC)[Au][I] [Au(PEt3)I] .
2120
